biological target: HLA-A2402 (Homo sapiens, UniProt P04439, D101N/D140Y/D185E/E176V/E190D/F33S/G103R/G107R/I119L/I121M/I306V/K335N/L105A/L180Q/L300P/N151K/N90K/Q86E/Q94H/R106L/R138H/R89G/T104I/T345S/V100E/W191G/Y123F); assay: cell-based; format: binding
Residues, ends and D or L forms follow the SMILES beside them.
Here the recorded IC50 is given for each entry.

{"columns": ["MOLECULE", "IC50"],
 "data": [
  ["CC[C@H](C)[C@H](NC(=O)[C@H](Cc1c[nH]cn1)NC(=O)[C@H](Cc1ccccc1)NC(=O)[C@@H](N)Cc1c[nH]c2ccccc12)C(=O)N[C@@H](CO)C(=O)N[C@@H](CS)C(=O)N[C@@H](CC(C)C)C(=O)N[C@H](C(=O)N[C@@H](Cc1ccccc1)C(=O)O)[C@@H](C)O [Epitope P52]", "< 5 µM"],
  ["CSCC[C@H](NC(=O)[C@H](CC(N)=O)NC(=O)[C@@H](NC(=O)[C@H](CC(N)=O)NC(=O)[C@@H](NC(=O)[C@H](Cc1ccc(O)cc1)NC(=O)[C@@H](N)CO)C(C)C)C(C)C)C(=O)NCC(=O)N[C@@H](CC(C)C)C(=O)O [Epitope P53] (H-SYVNVNMGL-OH; N-terminus and C-terminus assumed)", "< 5 µM"],
  ["CC(C)C[C@H](N)C(=O)N[C@@H](Cc1ccc(O)cc1)C(=O)N[C@@H](CO)C(=O)N[C@@H](CO)C(=O)N[C@H](C(=O)N[C@H](C(=O)N1CCC[C@H]1C(=O)N[C@@H](CS)C(=O)N[C@@H](Cc1ccccc1)C(=O)O)C(C)C)[C@@H](C)O [Epitope P55] (H-LYSSTVPCF-OH; N-terminus and C-terminus assumed)", "< 5 µM"]
]}

Every entry's value here was drawn from paper PMC9021956.
